Would you kindly list IC50 for each of these compounds?
experiment: Cytotoxicity against human KBVIN cells after 72 hrs by SRB assay; assay type: functional, cell-based; conditions: Homo sapiens, KBVIN, 72 h
Write the quantity with the unit trailing the number.

Below, each entry is followed by its recorded IC50 result.
Nc1cccc2c(Nc3cc(=O)oc4c3ccc3ccccc34)cccc12 = 150 nM
Nc1cccc(Nc2cc(=O)oc3c2ccc2ccccc23)c1 = 160 nM

Prompt: What value of measured IC50 is listed for `COc1ccc(Nc2cc(=O)oc3c2ccc2ccccc23)cc1` ?
Response: 130 nM
